// data source = the Human Domainome abundance scans (Beltran et al. 2025)

B1: Homeobox protein cut-like 1, residues 548 to 629; numbered along this chain, P39880 (parent)
chain: GEEMDTAEIARQVKEQLIKHNIGQRIFGHYVLGLSQGSVSEILARPKPWNKLTVRGKEPFHKMKQFLSDEQNILALRSIQGR

Variants of: B1
Assay: abundance fitness (aPCA) (normalised: wild type 0, dead -1); higher = more abundant; growth selection in yeast, the domain comes from the species named
Details: Homo sapiens

>  <sequence.text>
GEGMDTAEIARQVKEQLIKHNIGQRIFGHYVLGLSQGSVSEILARPKPWNKLTVRGKEPFHKMKQFLSDEQNILALRSIQGR

>  <abundance fitness>
-0.155

$$$$
>  <sequence.text>
GEEMDTAEIARQVKEQIIKHNIGQRIFGHYVLGLSQGSVSEILARPKPWNKLTVRGKEPFHKMKQFLSDEQNILALRSIQGR

>  <abundance fitness>
-0.358

$$$$
>  <sequence.text>
GEEMDTAEIARQVKEQLIKHNIGQRIFGHYVSGLSQGSVSEILARPKPWNKLTVRGKEPFHKMKQFLSDEQNILALRSIQGR

>  <abundance fitness>
-0.793

$$$$
>  <sequence.text>
GEEMDTAEIARQVKEQLIKHNIGQRIFGHYVLGISQGSVSEILARPKPWNKLTVRGKEPFHKMKQFLSDEQNILALRSIQGR

>  <abundance fitness>
-0.052

$$$$
>  <sequence.text>
GEEMDTAEIARQVKEQLIKHNIGQRIFGHYVLGLSQGSVSEILARPKPWNKLTWRGKEPFHKMKQFLSDEQNILALRSIQGR

>  <abundance fitness>
-0.173

$$$$
>  <sequence.text>
GEEMDTAEIARQVKEQLIKHNIGQRIFGHYVLGLSQGSVSEILARPKPWNKLTVRGKEPFHKMKQFLSDEQNILALRSIQGG

>  <abundance fitness>
0.117

$$$$
>  <sequence.text>
GVEMDTAEIARQVKEQLIKHNIGQRIFGHYVLGLSQGSVSEILARPKPWNKLTVRGKEPFHKMKQFLSDEQNILALRSIQGR

>  <abundance fitness>
-0.17

$$$$
>  <sequence.text>
GEEMDTAEIARQVKEQLIKHNIGQRIFGHYVLGLSQGSVSEILARPKPWNKLTVRVKEPFHKMKQFLSDEQNILALRSIQGR

>  <abundance fitness>
-0.343

$$$$
>  <sequence.text>
GEEMDTAEIARQVKEQLIKHNIGQRIFGHYVLGLSQGSVSEILARPKPWNKLTVRGKEPFHKMKQFLSDEQNILALRSIKGR

>  <abundance fitness>
-0.12

$$$$
>  <sequence.text>
GEEMDTAEIARQVKEQLIKHNIGQRIFGHYVLGLSQGSVSEILARPKPWNKLTVRGKEPFHKNKQFLSDEQNILALRSIQGR

>  <abundance fitness>
-1.16

$$$$
>  <sequence.text>
GEEMDTAEIARQVKEQLIKHNIGQRIFGHYVLGLSQGSVSEILARPKPWNKLTVRGKEPFHKMKQFLSDEQNILAVRSIQGR

>  <abundance fitness>
-0.357

$$$$
>  <sequence.text>
GEEMDTVEIARQVKEQLIKHNIGQRIFGHYVLGLSQGSVSEILARPKPWNKLTVRGKEPFHKMKQFLSDEQNILALRSIQGR

>  <abundance fitness>
-0.121

$$$$
>  <sequence.text>
GEEMDTAEIARQVKEQLIKHNIGQRIFGHYVLGLSQGSVSEILARPKPWNKLTVRGKEPFHKMKQFLSDEQNILTLRSIQGR

>  <abundance fitness>
0.012

$$$$
>  <sequence.text>
GEEMDTAEIARQVKEQLIKHNIGQRIFGHYVLGLSQGSVSEILARPKPWNKLYVRGKEPFHKMKQFLSDEQNILALRSIQGR

>  <abundance fitness>
-0.821

$$$$
>  <sequence.text>
GEEMDTAEIARQVKEQLIKHNIGQRIFGHYVLGLSQGSVSEILARPKPWNKCTVRGKEPFHKMKQFLSDEQNILALRSIQGR

>  <abundance fitness>
-0.484

$$$$
>  <sequence.text>
GEEMDTAEIARQVKEQLIKHNIGQRIFGHYVLGLSQGSVSEILARPKPWNILTVRGKEPFHKMKQFLSDEQNILALRSIQGR

>  <abundance fitness>
-0.008

$$$$
>  <sequence.text>
GEEMDTAEIARQVKEQLIKHNIGQRIFGHYVLGLSQGSVSEILARPKPWNKLTVRGKEPFHKMKQFLSDEQNIQALRSIQGR

>  <abundance fitness>
0.005

$$$$
>  <sequence.text>
GEEMDTAEIARQVKEQLIKHNIGQRIFGHYVLGLSQGSVSEILARPKPWNKLTVRGKEPFHKMKQFLSDEQLILALRSIQGR

>  <abundance fitness>
-0.251

$$$$
>  <sequence.text>
GEEMDTAEIARQVKEQLIKHNIGQRIFGHYVLGLSQGSVSEILARPKPWNKLTVRGKMPFHKMKQFLSDEQNILALRSIQGR

>  <abundance fitness>
-0.132

$$$$
>  <sequence.text>
GEEMDTAEIARQVKEQLIKHNIGQRIFGHYVLGLMQGSVSEILARPKPWNKLTVRGKEPFHKMKQFLSDEQNILALRSIQGR

>  <abundance fitness>
-0.278

$$$$
>  <sequence.text>
GEEMDTAEIARQVKEQLIKHNIGQRIFGHYVLGLSQGSVSEILARPKPWNKLTVRGKEPFHKMKQFLSDFQNILALRSIQGR

>  <abundance fitness>
-0.213

$$$$
>  <sequence.text>
GEEMDTAEIARQVKEQLIKHNIGQRIFGHYVLGLSQGSVSEILTRPKPWNKLTVRGKEPFHKMKQFLSDEQNILALRSIQGR

>  <abundance fitness>
0.057

$$$$
>  <sequence.text>
GEEMDTAEIARQVKEQLIKHNIGQRIFGHYVLGLSQGSVSEILARPKPWNKLTVRGKEPFHKMKQFLSDEQWILALRSIQGR

>  <abundance fitness>
-0.131

$$$$
>  <sequence.text>
GEEMDTAEIARQHKEQLIKHNIGQRIFGHYVLGLSQGSVSEILARPKPWNKLTVRGKEPFHKMKQFLSDEQNILALRSIQGR

>  <abundance fitness>
-0.574

$$$$
>  <sequence.text>
GEEMDTAEIARQVKEQLIKHNIGQRIFGHYVLGLSQGSVSEILARPKPWNKLTVRGKEPFHKMKRFLSDEQNILALRSIQGR

>  <abundance fitness>
-0.039

$$$$
>  <sequence.text>
GEEMDTAEIARQVKEQLIKHNIGQRIFGHYVLGLSQGSVSEILARPKPWNKLTVRGKEPFHLMKQFLSDEQNILALRSIQGR

>  <abundance fitness>
-0.12

$$$$
>  <sequence.text>
GEEMDTAEIARQVKEQLIKHNIGQRIFGHYVLGLSQGSVSEILARPKPVNKLTVRGKEPFHKMKQFLSDEQNILALRSIQGR

>  <abundance fitness>
-0.529

$$$$
>  <sequence.text>
GEEMDTAEIARQVKEQLIKHNIGQRIFGHYVLGLSQGSVSEILARPKPWNKLTVRGEEPFHKMKQFLSDEQNILALRSIQGR

>  <abundance fitness>
-0.476

$$$$
>  <sequence.text>
GEEMDTAEIARQVKEQLIKHNIGQRIFGHYVLGLSQGSVSEILARPKPWNKLTVRGKEPFHKMKQFYSDEQNILALRSIQGR

>  <abundance fitness>
-0.609

$$$$
>  <sequence.text>
GEEMDTAEIARQVKEQLIKHNIGQRIFGHYVLGLSQGSVSEILARPKPWNKLTVRGKEPFHKMKQFLSKEQNILALRSIQGR

>  <abundance fitness>
-0.108

$$$$
>  <sequence.text>
GEEMDTAEIARQVKEQLIKHNIGQRIFGHYVLGLSQGSVSEILARPKPWNKLTVRGKEPFHKMKQFLSDEQNCLALRSIQGR

>  <abundance fitness>
-0.129

$$$$
>  <sequence.text>
GEEMDTAEIARQVKEQLIKHNIGQRIFGHYVLGLSQLSVSEILARPKPWNKLTVRGKEPFHKMKQFLSDEQNILALRSIQGR

>  <abundance fitness>
-0.022

$$$$
>  <sequence.text>
GEEMDTAEIARQVKEQLIKHNIGQRIFGHYVLGLSQGSVSEILARPKPWNKLTVRGKEPFHKMKQFLCDEQNILALRSIQGR

>  <abundance fitness>
-0.133

$$$$
>  <sequence.text>
GEEMDTAEIARQVKEQLIKHNIGQRIFGRYVLGLSQGSVSEILARPKPWNKLTVRGKEPFHKMKQFLSDEQNILALRSIQGR

>  <abundance fitness>
-0.051

$$$$
>  <sequence.text>
GEEMDTAEIARQVKEQLIKHNIGQRIFGHYVLGLSQGSVSEILARPKPWNKLTVRPKEPFHKMKQFLSDEQNILALRSIQGR

>  <abundance fitness>
-0.697

$$$$
>  <sequence.text>
GERMDTAEIARQVKEQLIKHNIGQRIFGHYVLGLSQGSVSEILARPKPWNKLTVRGKEPFHKMKQFLSDEQNILALRSIQGR

>  <abundance fitness>
-0.145

$$$$
>  <sequence.text>
GEEMDTAEIARQVKEQLIKHNIGQRIFGHYVLGLSQGSVSEILARPKPWNKLTVRGKEPFHKMLQFLSDEQNILALRSIQGR

>  <abundance fitness>
-0.064

$$$$
>  <sequence.text>
GEEMDTAEIARQVKEQLIKHNIGQRIFGHYVLGLSQGSVSEILARPKPWNKLTVRGKEPFHKMKQFLSDEQNICALRSIQGR

>  <abundance fitness>
-0.162

$$$$
>  <sequence.text>
GEEMDTAEIARQVKEQLIKHNIGQRIFGHYVLGLSQGSVSEILARPKPWNKLTVRGKEPFHKMKQFLSDEQNILALRSIHGR

>  <abundance fitness>
-0.075

$$$$
>  <sequence.text>
GEEMDTAEIARQVKEQLIKHNIGQRIFGHYVLGLSQGSVSEILARPKPWNKLTVRGKEPFHKMKQFLSDEQNILALRSIQPR

>  <abundance fitness>
-0.103

$$$$
>  <sequence.text>
GEEMDTAEIARQVKEQLIKHNIGQRIFGHYVLGLSQGSVSEILARPKPWNKLTVRGKEPFHKMKQFLSWEQNILALRSIQGR

>  <abundance fitness>
-0.387

$$$$
>  <sequence.text>
GEEMDTAEIARQVKEQLIKHNIGQRIFGHYVLGLSQGSVSEILARPKPWNKLTVYGKEPFHKMKQFLSDEQNILALRSIQGR

>  <abundance fitness>
-0.096

$$$$
>  <sequence.text>
GEEMDTAEIARQVKEQLIKHNIGQRIFGHYVLGLSQGSISEILARPKPWNKLTVRGKEPFHKMKQFLSDEQNILALRSIQGR

>  <abundance fitness>
-0.212

$$$$
>  <sequence.text>
GEEMDTAEIARQVKEQLIKHNIGQRIFGHYVLGLSQGSVSEILARPWPWNKLTVRGKEPFHKMKQFLSDEQNILALRSIQGR

>  <abundance fitness>
-0.329

$$$$
>  <sequence.text>
GEEMDTAEIARQVKEQLIKHNIGQRIFGHYVLGLSQGSVSEILARPKPWNKLTVRGKEPFHAMKQFLSDEQNILALRSIQGR

>  <abundance fitness>
-0.201

$$$$
>  <sequence.text>
GEEMDTAEIARQVKEQLIKHNIGQRIFGHYVLGLSQGSVSEILARPKPWNKLTVRGKEPFHKMKQFLSDEGNILALRSIQGR

>  <abundance fitness>
-0.037

$$$$
